Data credit: the supplement of paper PMC12420376

tested on: OVCAR8; experiment: drug sensitivity score (DSS2) on cancer cell count; higher = more sensitive; extreme values may be limits of the assay; conditions: co-cultured fibroblast: WI38; 72 h
Kindly state drug sensitivity score for each of the entries shown.
// units = DSS; emit number, no label

Input: Data request, read-out drug sensitivity score, for CCS(=O)(=O)Nc1ccc(Oc2ccc(F)cc2F)c(-c2cn(C)c(=O)c3[nH]ccc23)c1
Output: 26.9

Input: Queued: CO[C@@H](C)Cn1c(=O)n(C)c2cnc3ccc(-c4cncc(C(C)(C)O)c4)cc3c21
Output: 9.6

Input: Queued: CCN(CC)CCCC(C)Nc1ccnc2cc(Cl)ccc12 (stereo not drawn)
Output: 6.4

Input: Queued: O=C(NOC[C@H](O)CO)c1ccc(F)c(F)c1Nc1ccc(I)cc1F
Output: 0

Input: Queued: COC(=O)c1ccc([C@H]2c3[nH]c4ccccc4c3C[C@H](C(=O)OC)N2C(=O)CCl)cc1
Output: 0

Input: Queued: CN[C@@H](C)C(=O)N[C@H]1CN(C(=O)CC(C)C)CC[C@H]2CC[C@@H](C(=O)NC(c3ccccc3)c3ccccc3)N2C1=O
Output: 9.9

Input: Queued: C[C@]1(O)C[C@@H](c2nc(-c3ccc4ccc(-c5ccccc5)nc4c3)c3c(N)nccn32)C1
Output: 0

Input: Queued: COc1cc2c(N3CCN(C(=O)Nc4ccc(OC(C)C)cc4)CC3)ncnc2cc1OCCCN1CCCCC1
Output: 0
